target: Stromelysin-1 (Homo sapiens)
Sequence (P08254 whole entry): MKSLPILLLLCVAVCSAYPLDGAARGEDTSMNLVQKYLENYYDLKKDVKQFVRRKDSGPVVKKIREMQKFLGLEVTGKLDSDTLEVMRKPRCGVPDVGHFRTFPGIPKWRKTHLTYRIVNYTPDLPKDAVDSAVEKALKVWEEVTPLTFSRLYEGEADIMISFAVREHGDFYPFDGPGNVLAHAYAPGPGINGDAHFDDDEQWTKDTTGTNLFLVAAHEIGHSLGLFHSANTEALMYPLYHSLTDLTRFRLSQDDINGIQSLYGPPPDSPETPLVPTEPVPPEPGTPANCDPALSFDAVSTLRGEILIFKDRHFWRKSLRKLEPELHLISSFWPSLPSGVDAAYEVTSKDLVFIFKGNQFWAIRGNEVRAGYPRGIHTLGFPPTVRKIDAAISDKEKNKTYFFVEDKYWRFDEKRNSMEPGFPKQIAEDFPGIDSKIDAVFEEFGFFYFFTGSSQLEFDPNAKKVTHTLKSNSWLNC
pKi: −log10 of the molar value.
readout.kind: pKi

- structure: "CNC(=O)[C@@H]1CCC(=O)OCCNC(=O)CC[C@H](C(=O)O)N[C@@H](CCc2ccccc2)C(=O)N1"
  observed.measurement: 5.54
